Protocol Notes: Cytotoxicity plates without OC43 virus (cell-titer-glo)
Format: cell-based, human
Setup Conditions: human; HeLa cells without OC43 virus, class symbols
Property: CC50 at 6 days

# get_value(readout='CC50 at 6 days', item= "COc1cccc2[nH]c(C(=O)N3C[C@H]4[C@@H]([C@H]3C(=O)N[C@@H](C[C@@H]3CCNC3=O)C(=O)CO)C4(C)C)cc12" )
> 10 µM

# get_value(readout='CC50 at 6 days', item= "O=C1NCC[C@H]1C[C@H](NC(=O)[C@@H]1[C@H]2CCC[C@H]2CN1C(=O)c1cc2c3c(ccc2[nH]1)CCO3)C(=O)CO" )
> 10 µM

# get_value(readout='CC50 at 6 days', item= "O=C(NCc1ccccc1)C(=O)[C@H](C[C@@H]1CCNC1=O)NC(=O)[C@@H]1C[C@@H](C2CCCCC2)CN1C(=O)c1cc2ccccc2[nH]1" )
> 10 µM

# get_value(readout='CC50 at 6 days', item= "CSc1cccc2[nH]c(C(=O)N3C[C@@H]4CCC[C@@H]4[C@H]3C(=O)N[C@@H](C[C@@H]3CCNC3=O)C(=O)CO)cc12" )
> 10 µM

# get_value(readout='CC50 at 6 days', item= "CC(C)(C)C(=O)OCC(=O)[C@H](C[C@@H]1CCNC1=O)NC(=O)[C@@H]1[C@H]2CCC[C@H]2CN1C(=O)c1cc2c(Cl)cc(Cl)cc2[nH]1" )
1 to 10 µM

# get_value(readout='CC50 at 6 days', item= "O=C(NCc1ccccc1)C(=O)[C@H](C[C@@H]1CCNC1=O)NC(=O)[C@@H]1C[C@@]2(CN1C(=O)c1cc3ccccc3[nH]1)CC2(F)F" )
> 10 µM

====

Protocol Notes: in vitro
Setup Conditions: human
Property: CC50

# get_value(readout='CC50', item= COc1cccc2[nH]c(C(=O)N3C[C@@H]4CCC[C@@H]4[C@H]3C(=O)N[C@@H](CC3CC(C)(C)NC3=O)C(=O)C(=O)NC3CC3)cc12 (single isomer, unassigned) )
> 50 µM

# get_value(readout='CC50', item= "COc1cccc2[nH]c(C(=O)N3C[C@@H]4CCC[C@@H]4[C@H]3C(=O)N[C@@H](C[C@H]3CC(C)(C)NC3=O)C(=O)CO)cc12" )
> 50 µM

# get_value(readout='CC50', item= "COc1cccc2[nH]c(C(=O)N3C[C@H]4[C@@H]([C@H]3C(=O)N[C@@H](C[C@@H]3CCNC3=O)C(=O)C(N)=O)C4(C)C)cc12" )
> 100 µM

# get_value(readout='CC50', item= "COc1cccc2[nH]c(C(=O)N3C[C@@H]4CCC[C@@H]4[C@H]3C(=O)N[C@@H](CN3C[C@H](O)CC3=O)C(=O)C(=O)NC3CC3)cc12" )
> 10 µM

# get_value(readout='CC50', item= "O=C1NCC[C@H]1C[C@H](NC(=O)[C@@H]1[C@H]2CCC[C@H]2CN1C(=O)c1cc2c3c(ccc2[nH]1)CCO3)C(=O)CO" )
> 50 µM

# get_value(readout='CC50', item= "Cn1c(C(=O)N2CCC3(CC3)C[C@H]2C(=O)N[C@@H](C[C@@H]2CCNC2=O)C(=O)C(=O)NC2CC2)cc2ccccc21" )
> 10 µM

# get_value(readout='CC50', item= "Cc1ccc2[nH]c(C(=O)N3CCC4(CC4)C[C@H]3C(=O)N[C@@H](C[C@@H]3CCNC3=O)C(=O)C(=O)NC3CC3)cc2c1" )
> 10 µM

# get_value(readout='CC50', item= "COc1ccnc2[nH]c(C(=O)N3C[C@@H]4CCC[C@@H]4[C@H]3C(=O)N[C@@H](C[C@@H]3CCNC3=O)C(=O)CO)cc12" )
> 100 µM

# get_value(readout='CC50', item= "O=C(NCc1ccccc1)C(=O)[C@H](C[C@@H]1CCNC1=O)NC(=O)[C@@H]1[C@H]2CCC[C@H]2CN1C(=O)c1nc2ccccc2[nH]1" )
> 100 µM

# get_value(readout='CC50', item= "CCOC(=O)c1cc(C(=O)N2C[C@@H]3CCC[C@@H]3[C@H]2C(=O)N[C@@H](C[C@@H]2CCNC2=O)C(=O)CO)[nH]c1C" )
> 50 µM

# get_value(readout='CC50', item= "COc1cccc2[nH]c(C(=O)N3C[C@@H]4CCC[C@@H]4[C@H]3C(=O)N[C@@H](C[C@@H]3CCCNC3=O)C(=O)CO)cc12" )
> 100 µM

# get_value(readout='CC50', item= "O=C(NC1CC1)C(=O)[C@H](C[C@@H]1CCNC1=O)NC(=O)[C@@H]1CC2(CCN1C(=O)c1cc3c(F)cccc3[nH]1)CC2" )
1 to 10 µM
